The values you see were collected from the array DNA melting data of Ke et al. (doi:10.1101/2024.01.08.574731).

Assay: melting temperature; fluorescence melt of hairpins on a sequencing array, two-state fit, raised by 9.35 °C to match UV melts
Conditions: sodium 0.088 M
Readout: Tm (°C)

1) GGCTGTGCGAAAGCAGCC (((..(((....))))))    57.5
2) CGGCCGGAAACGGCCCCG ((((((....)))..)))    35.4
3) GATCGTGGAAACACGATC (((((((....)))))))    66.3
4) GTACTCGGAAACGAGTGC (.(((((....))))).)    54.5
5) GCCTCGGGAAACCGAAGC ((.((((....)))).))    44.6
6) CATCCGAAAGGATG (((((....)))))    63.1
7) GATCTCACAGAGATC ((((((...))))))    56.1
8) GCGCCGCGAAAGCCGTGC ((.(.((....)).).))    52.1
9) GGGTATTCGAAAGAACCC (((..(((....))))))    34.5
10) GATCGCTGATGCGATC ((((((....))))))    67.2
11) GCTCTGACGAAAGTCAGC (((..(((....))))))    31.3
12) GCTATGCGAAAGCTCAGC (((..((....))..)))    36.2
13) GTAGGTGAAAACCTAC ((((((....))))))    56.4
14) GGGGGCGAAAGCCATCCC ((((((....)))..)))    51.5
15) GCCTCGGGAAACCAAGGC ((((.((....)).))))    47.6
16) GCCACTGGAAACAACGGC (((..((....))..)))    27.6
17) GCCTTGCGAAAGCTCGGC (((..((....))..)))    53.1
18) GTAACCGGAAACGGTTGC (.(((((....))))).)    53.1
19) GATCGGCTACCCGATC ((((((....))))))    54.9

###

Assay: folding enthalpy; higher = less favourable; fluorescence melt of hairpins on a sequencing array, two-state fit
Conditions: sodium 0.088 M
As shown below, each of these sequences has a reported folding enthalpy value.
Readout: folding enthalpy (kcal/mol)

1) GTTTCCGAAAGGAGCAAC ((((((....)))..)))    -11.8
2) GCAAACCCGAAAGGGTGC (((..(((....))))))    -17.5
3) CGGCCGGAAACGGCCCCG ((((((....)))..)))    -6
4) GTCTATGGAAACATAGGC (.(((((....))))).)    -30.7
5) GCCGAGCGAAAGCGCAGC ((.(.((....)).).))    -14.4
6) CGACGTCGGAAACGATCG (((..(((....))))))    -11.2
7) GTAGAGAAATCTAC (((((....)))))    -12.6
8) GCCCGGCGAAAGCGGCGC ((.(.((....)).).))    -21.1
9) GCGATGTTTCGC ((((....))))    -22.9
10) GGACACGAAAGTGTGTCC ((((((....)))..)))    -30.6
11) GCGGAGCGAAAGCGCGGC ((.(.((....)).).))    -15.3
12) GCAAACGAAAGTTTGTGC ((((((....)))..)))    -25.2
13) GCAAGGGGAAACCCTCAC (..((((....))))..)    -9.15
14) CTGACGAAAGTCAG (((((....)))))    -29
15) ACCATGAAAATGGT (((((....)))))    -20.3
16) GGAAAAGGAAACTTTTTC (.(((((....))))).)    -20.6
17) GCTTGGCGAAAGCAAGGC ((.(.((....)).).))    -14.9
18) GATCTCCTGAGAGATC ((((((....))))))    -39
19) GATCAGTAAACTGATC ((((((....))))))    -37.4
20) GATCGCAACAGCGATC ((((((....))))))    -35.4
21) GCGCTGCGAAAGCGTCGC (((..((....))..)))    -25.4
22) GCAGCGCGAAAGCACAGC ((.(.((....)).).))    -19.9
23) GGTGACGAAAGTCCAACC ((((((....)))..)))    -18.2
24) GATCTTTAAAAAGATC ((((((....))))))    -34.8
25) GAGTCTGGAAACAGACTC (((((((....)))))))    -39.9
26) GTGGATCCGAAAGGACAC (((..(((....))))))    -23.3
27) GTGGGGGGAAACCCCTAC ((.((((....)))).))    -17.8
28) GACCGCGGAAACGCGGCC (.(((((....))))).)    -10.1
29) GATCTCGCGGAGATC ((((((...))))))    -35.4
30) GAAGCGCGAAAGCGTTC (((.(((....))))))    -10.6
31) GCGTGGCGAAAGCTATGC ((.(.((....)).).))    -31.4
32) GATCAGTGCACTGATC ((((((....))))))    -58.7
33) GTTACGAAAGTAAC (((((....)))))    -30
34) GTATCAGGAAACTGATAC (((((((....)))))))    -39.3
35) GCAGTGAAAACTGC (((((....)))))    -28.1
36) GGAGGCGGAAACACCTCC (((((.(....).)))))    -39.4
37) GTCTGCGAAAGCAAAGAC ((((((....)))..)))    -19.1
38) GGTTTGACGAAAGTCACC (((..(((....))))))    -10.6
39) GAATCCGAAAGGACTTC ((((((....))).)))    -19.4
40) GTAGTGGGAAACTACTGC (.(((.(....).))).)    -28.8
41) GCAGTCGAAAGACAATGC ((((((....)))..)))    -20.1
42) GCGCCGCGAAAGCGATGC ((..(((....)))..))    -19.4
43) GCCACAGGAAACTATGGC ((((.((....)).))))    -31.8
44) GATCGTTTCAACGATC ((((((....))))))    -42

###

Experiment: melting temperature; fluorescence melt of hairpins on a sequencing array, two-state fit, raised by 9.35 °C to match UV melts
Conditions: sodium 0.088 M
Readout: Tm (°C)

1. GCGTCGGTACGC ((((....))))    52.8
2. GCGTAGTAACGC ((((....))))    53
3. GATCACCTGTGTGATC ((((((....))))))    57
4. GGTGGGGGAAACCTCACC ((((.((....)).))))    53.5
5. GGTGCCTCGAAAGAGACC (((..(((....))))))    30.8
6. GATCGAACCTTCGATC ((((((....))))))    53.5
7. GATCTGGCAACAGATC ((((((....))))))    57.6
8. GGCGGCGAAAGCCGGGCC ((((((....)))..)))    58.1
9. CGAAGCGGAAACGCATCG (((.(((....))).)))    51.5
10. GATCACAGGAGTGATC ((((((....))))))    54.8
11. GCGATCGTCGC ((((...))))    45.9
12. GATCAGAGATCTGATC ((((((....))))))    50.1
13. GATCTCCGCCGAGATC ((((((....))))))    50.9

###

Assay: melting temperature; fluorescence melt of hairpins on a sequencing array, two-state fit, raised by 9.35 °C to match UV melts
Conditions: sodium 0.088 M
Readout: Tm (°C)

1) GTAAATGGAAACATTTAC (((((((....)))))))    51.3
2) GTGTTGAAAAACAC (((((....)))))    49.9
3) GATCAATGCGTTGATC ((((((....))))))    50.9
4) GTTTGTGGAAACATAAAC ((((.((....)).))))    39.6
5) GCCCTGCGAAAGCTGTGC ((.(.((....)).).))    38.9
6) GAAGGTGGAAACACCTCC (.(((((....))))).)    40.8
7) GCCCGGACGAAAGTCGGC (((..(((....))))))    50.9
8) GGGTCTCCGAAAGGACCC (((..(((....))))))    51.4
9) GGGTGATCGAAAGATCCC (((..(((....))))))    50.2
10) GGTAGACGAAAGTCAACC (((.(((....))).)))    51.5
11) GGACGTCGAAAGACTCC (((.(((....))))))    51.2
